// values below are reported Assay Signal (percent)
- assayedTarget: JARID1B (Homo sapiens)
- Construct: The FLAG tagged full length JARID1B enzyme was expressed in Sf21 insect cells using FLAG-JARID1B baculoviruses; FLAG (N); made in house; host or cells: Sf21 insect cells (baculovirus)
- Sequence (Q9UGL1 whole entry): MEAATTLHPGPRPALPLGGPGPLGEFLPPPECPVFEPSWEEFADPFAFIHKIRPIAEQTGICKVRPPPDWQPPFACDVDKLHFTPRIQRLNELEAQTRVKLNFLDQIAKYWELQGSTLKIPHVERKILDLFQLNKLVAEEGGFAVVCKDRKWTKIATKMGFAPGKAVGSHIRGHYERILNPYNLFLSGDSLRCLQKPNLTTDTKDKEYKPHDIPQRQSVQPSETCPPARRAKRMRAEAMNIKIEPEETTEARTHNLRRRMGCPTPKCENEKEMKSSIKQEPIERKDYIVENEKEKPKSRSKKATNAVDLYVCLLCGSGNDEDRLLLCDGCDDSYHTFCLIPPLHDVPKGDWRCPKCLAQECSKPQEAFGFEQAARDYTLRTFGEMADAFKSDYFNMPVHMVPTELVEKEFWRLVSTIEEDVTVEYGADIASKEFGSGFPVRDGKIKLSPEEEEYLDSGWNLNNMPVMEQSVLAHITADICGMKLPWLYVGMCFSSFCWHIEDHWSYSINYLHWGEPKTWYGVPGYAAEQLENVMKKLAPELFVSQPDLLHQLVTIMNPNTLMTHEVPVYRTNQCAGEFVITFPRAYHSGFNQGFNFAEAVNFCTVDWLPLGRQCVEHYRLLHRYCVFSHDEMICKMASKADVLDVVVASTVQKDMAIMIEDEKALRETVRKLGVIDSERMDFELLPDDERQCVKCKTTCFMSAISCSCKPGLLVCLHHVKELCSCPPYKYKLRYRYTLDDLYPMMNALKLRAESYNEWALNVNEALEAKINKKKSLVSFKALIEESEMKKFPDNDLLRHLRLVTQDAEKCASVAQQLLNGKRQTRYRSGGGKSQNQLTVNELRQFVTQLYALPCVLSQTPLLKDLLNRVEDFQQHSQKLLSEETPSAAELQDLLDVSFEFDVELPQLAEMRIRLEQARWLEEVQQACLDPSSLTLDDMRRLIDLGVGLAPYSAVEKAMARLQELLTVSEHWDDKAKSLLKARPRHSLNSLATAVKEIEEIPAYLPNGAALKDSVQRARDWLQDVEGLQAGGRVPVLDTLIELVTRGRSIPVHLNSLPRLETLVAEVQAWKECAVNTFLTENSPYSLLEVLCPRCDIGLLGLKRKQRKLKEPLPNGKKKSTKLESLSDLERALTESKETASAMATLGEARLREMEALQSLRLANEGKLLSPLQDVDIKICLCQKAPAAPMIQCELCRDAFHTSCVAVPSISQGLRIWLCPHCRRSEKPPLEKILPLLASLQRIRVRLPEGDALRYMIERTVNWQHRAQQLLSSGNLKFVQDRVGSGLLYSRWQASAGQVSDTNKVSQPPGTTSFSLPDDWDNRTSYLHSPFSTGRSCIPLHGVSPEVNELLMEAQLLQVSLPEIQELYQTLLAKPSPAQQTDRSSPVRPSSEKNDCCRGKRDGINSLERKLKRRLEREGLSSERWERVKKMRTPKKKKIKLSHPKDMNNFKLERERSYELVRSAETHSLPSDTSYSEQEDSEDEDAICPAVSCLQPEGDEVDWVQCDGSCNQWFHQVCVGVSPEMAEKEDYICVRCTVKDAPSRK
- assaySummary: FLAG-JARID1B histone demethylase assay with AlphaScreen detection (HTS and dose response);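 for Assay Signal (percent): compound tested at 20 µM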
- Type: biochemical
- protocolConditions: validation of HTS actives; effect of compound in JARID1B AlphaScreen assay
Return type: number; implicit unit %.

Worked examples, 5 compounds total:
compound="O=C(O)c1cc(N(Cc2ccccc2O)Cc2cc(O)ccc2O)ccc1O [YU154829, LAVENDUSTIN A, reference compound]" unitsofmeasure=% experimentalresult=38.57
compound="COc1cc(C=C[N+](=O)[O-])ccc1OCc1cccc(C(=O)O)c1 (single isomer, unassigned) [YU153545]" unitsofmeasure=% experimentalresult=100.32
compound="COc1ccc(C2CC(c3cccnc3)Nc3nnnn32)cc1 (centres unmarked) [YU151128]" unitsofmeasure=% experimentalresult=6.20
compound="N#Cc1c(O)nc(S)nc1-c1ccccc1 [YU145521]" unitsofmeasure=% experimentalresult=6.99
compound="Cc1ccc(C)c(NS(=O)(=O)c2ccc3[nH]c(=O)oc3c2)c1 [YU152226]" unitsofmeasure=% experimentalresult=5.25

Ask | Specify reported Assay Signal (percent) for the compound shown: O=C(NC1=NC(=O)C(F)(C(F)(F)F)S1)NC1CCCCC1 (centres unmarked) [YU153281]
Reply | 25.46

Ask | Specify reported Assay Signal (percent) for the compound shown: O=C(NNC(=S)NCC1CCCO1)c1ccccn1 (centres unmarked) [YU148374]
Reply | 77.28

Ask | Specify reported Assay Signal (percent) for the compound shown: COc1ccccc1OCc1nnc(S)n1C [YU146471]
Reply | 46.29

Ask | Specify reported Assay Signal (percent) for the compound shown: C=CCn1c(-c2cccc(OC)c2OC)n[nH]c1=S [YU148159]
Reply | 38.72

Ask | Specify reported Assay Signal (percent) for the compound shown: CCOc1cc(CN)cc(Cl)c1OCC.Cl [YU147266]
Reply | 69.21

Ask | Specify reported Assay Signal (percent) for the compound shown: CC(=O)Nc1ccccc1NC(=O)c1ccc2c(c1)OCO2 [YU149951]
Reply | 6.61

Ask | Specify reported Assay Signal (percent) for the compound shown: CCC(=O)Nc1cnc(N2CCN(c3ccc(Cl)cc3)CC2)c(C(=O)O)c1 [YU208250]
Reply | 21.70

Ask | Specify reported Assay Signal (percent) for the compound shown: N[C@@H](Cc1ccc(O)c(O)c1)C(=O)O [YU034332, LEVODOPA, reference compound]
Reply | 55.74

Ask | Specify reported Assay Signal (percent) for the compound shown: Oc1cc2c(cc1O)C1c3ccc(O)c(O)c3OCC1(O)C2 (centres unmarked) [YU155005, HAEMATOXYLIN, reference compound]
Reply | 98.90

Ask | Specify reported Assay Signal (percent) for the compound shown: N#CC(=Cc1ccc(N2CCCCC2)o1)c1ccc([N+](=O)[O-])cc1 (single isomer, unassigned) [YU152765]
Reply | 11.96

Ask | Specify reported Assay Signal (percent) for the compound shown: Cc1noc2c1C(c1ccc(O)c(O)c1)C1=C(CCCC1=O)N2 (centres unmarked) [YU183529]
Reply | 40.22

---

- assayedTarget: JARID1B (Homo sapiens)
- Construct: The FLAG tagged full length JARID1B enzyme was expressed in Sf21 insect cells using FLAG-JARID1B baculoviruses; FLAG (N); made in house; host or cells: Sf21 insect cells (baculovirus)
- assaySummary: FLAG-JARID1B histone demethylase assay with AlphaScreen detection (HTS and dose response)
- Format: biochemical
- protocolConditions: Fe (II) concentration not stated; read-out: IC50 against JARID1B
pIC50: −log10 of the molar value.
quantityKind: pIC50

molecule=Cc1ccc(-n2sc3ccccc3c2=O)cc1 experimentalresult=~5.52

Now for another entry.
Ask | Specify reported pIC50 for the molecule shown: O=c1c2ccccc2[se]n1-c1ccccc1 [Ebselen, ebselen, reference compound]
Reply | ~5.22

---

- assayedTarget: JARID1B (Homo sapiens)
- Construct: The FLAG tagged full length JARID1B enzyme was expressed in Sf21 insect cells using FLAG-JARID1B baculoviruses; FLAG (N); made in house; host or cells: Sf21 insect cells (baculovirus)
- assaySummary: FLAG-JARID1B histone demethylase assay with AlphaScreen detection (HTS and dose response)
- Format: biochemical
- protocolConditions: high-throughput screen, compound 20 μM, standard demethylase conditions (10 μM α-KG, 50 μM Fe (II)); read-out: Inhibitory effect (percent)
quantityKind: inhibition at 20 µM (%)
Return type: number; implicit unit %.

Worked examples, 5 molecules total:
molecule="CCOc1cccc(CNc2ccc(N3CCCC3)cc2)c1 [YU149839]" quantitykind="inhibition at 20 µM" experimentalresult=47.5
molecule="CCC(=O)Nc1ccc(N(C)CCCc2c(C)nn(C)c2C)c(C(=O)O)c1 [YU208228]" quantitykind="inhibition at 20 µM" experimentalresult=43.4
molecule="Cc1cccc(NC(c2ccccn2)c2ccc3cccnc3c2O)n1 (centres unmarked) [YU172178]" quantitykind="inhibition at 20 µM" experimentalresult=72.3
molecule="O=C(O[C@@H]1Cc2c(O)cc(O)cc2O[C@@H]1c1cc(O)c(=O)c2c(O)c(O)cc([C@H]3Oc4cc(O)cc(O)c4C[C@H]3O)c2c1)c1cc(O)c(O)c(O)c1 [YU155347, THEAFLAVIN MONOGALLATES, reference compound]" quantitykind="inhibition at 20 µM" experimentalresult=104
molecule="C[C@](N)(Cc1ccc(O)c(O)c1)C(=O)O [YU033903, METHYLDOPA, reference compound]" quantitykind="inhibition at 20 µM" experimentalresult=69.1

Ask | Specify reported inhibition at 20 µM for the molecule shown: O=S(=O)(NN1CCOCC1)c1ccc(Cl)cc1 [YU148050]
Reply | 36.1

Ask | Specify reported inhibition at 20 µM for the molecule shown: Oc1ccc2c(c1)OCC1(O)Cc3cc(O)c(O)cc3C21 (centres unmarked) [YU154998, BRAZILIN, reference compound]
Reply | 70.3

Ask | Specify reported inhibition at 20 µM for the molecule shown: Cc1cc(C)nc(Nc2ccc(N(C)C)cc2)n1 [YU146020]
Reply | 30.9

---

- assayedTarget: JARID1B (Homo sapiens)
- Construct: The FLAG tagged full length JARID1B enzyme was expressed in Sf21 insect cells using FLAG-JARID1B baculoviruses; FLAG (N); made in house; host or cells: Sf21 insect cells (baculovirus)
- assaySummary: FLAG-JARID1B histone demethylase assay with AlphaScreen detection (HTS and dose response);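 for Assay − Artifact Signal (percent): compound tested at 20 µM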
- Type: biochemical
- protocolConditions: assay signal minus artifact signal
// values below are reported Assay − Artifact Signal (percent)
Return type: number; implicit unit %.

Worked examples, 9 compounds total:
compound=C=CCN(CC=C)C(=S)Nc1sc(C)c(C)c1C(=O)OC assayedtarget="JARID1B (Homo sapiens)" experimentalresult=16.80
compound=COc1ccc(CNn2c(C)nnc2S)cc1 assayedtarget="JARID1B (Homo sapiens)" experimentalresult=42.15
compound=C=CCn1c(S)nnc1CNC(=O)c1cccc(C)c1 assayedtarget="JARID1B (Homo sapiens)" experimentalresult=49.04
compound="O=c1c(O[C@@H]2O[C@H](CO)[C@H](O)[C@H](O)[C@H]2O)c(-c2ccc(O)c(O)c2)oc2cc(O)cc(O)c12 [YU221013, HYPEROSIDE, reference compound]" assayedtarget="JARID1B (Homo sapiens)" experimentalresult=41.83
compound=C=CCn1c(-c2cccc(OC)c2OC)n[nH]c1=S assayedtarget="JARID1B (Homo sapiens)" experimentalresult=35.74
compound=O=C(NCc1ccccc1)c1ccc(N2CCCC2)c([N+](=O)[O-])c1 assayedtarget="JARID1B (Homo sapiens)" experimentalresult=11.37
compound=Cc1ccsc1CNn1cnnc1S assayedtarget="JARID1B (Homo sapiens)" experimentalresult=46.83
compound="CCCSc1nc2c3c(sc2c(=O)[nH]1)CC(C)(CC)OC3 (stereo not shown)" assayedtarget="JARID1B (Homo sapiens)" experimentalresult=9.19
compound=COCCCNCCOc1cc(C(C)C)ccc1C assayedtarget="JARID1B (Homo sapiens)" experimentalresult=12.07

Ask | Specify reported Assay − Artifact Signal (percent) for the compound shown: "CCn1c(S)nnc1-c1ccncc1"
Reply | 43.88

---

- assayedTarget: JARID1B (Homo sapiens)
- Construct: The FLAG tagged full length JARID1B enzyme was expressed in Sf21 insect cells using FLAG-JARID1B baculoviruses; FLAG (N); made in house; host or cells: Sf21 insect cells (baculovirus)
- assaySummary: FLAG-JARID1B histone demethylase assay with AlphaScreen detection (HTS and dose response);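 note: FLAG-tagged JARID1B at 4 nM acting on a biotinylated H3K4me3 peptide, demethylation read by AlphaScreen luminescence, with hits checked against bio-H3K4me2 without enzyme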
- Assay type: biochemical
- protocolConditions: dose response at 50 μM (high) Fe (II); read-out: IC50 (μM) high Fe (II)
# note: boundary value 3 µM maps to no; IC50 below it maps to yes

A selection of reference data follows.
molecule=Cc1ccc(-n2sc3ccccc3c2=O)cc1 discretelabel=yes
molecule="O=c1ccc2cc(O)c(O)cc2o1 [Esculetin, esculetin, reference compound]" discretelabel=no
molecule="O=C(O)/C=C/c1ccc(O)c(O)c1 [Caffeic acid, reference compound]" discretelabel=yes
molecule=N#C/C(=C\c1ccncc1)c1nc2cc(C(F)(F)F)ccc2s1 discretelabel=yes
molecule=Cn1c(/C(C#N)=C/c2ccncc2)nc2ccccc21 discretelabel=yes

# evaluate next
Ask | Find out if reported IC50 for O=c1c2ccccc2[se]n1-c1ccccc1 [Ebselen, ebselen, reference compound] is less than 3 µM
Reply | no
